# Species: Homo sapiens
# assay: Selectivity for human NPY4 over NPY2 receptor
Non-standard residues stand in square brackets, D forms with d. Residues, ends and D or L forms follow the SMILES beside them. Nva = CCC[C@H](N)C(=O)O
The compounds listed here are annotated with their Selectivity ratio.
measured-attribute: Selectivity ratio

compound | measured-attribute | numeric-result
CCC[C@H](NC(=O)[C@H](CCCN=C(N)N)NC(=O)[C@H](Cc1c[nH]c2ccccc12)NC(=O)[C@H](Cc1ccc(O)cc1)NC(=O)[C@H](CCCN=C(N)N)NC(=O)[C@H](CCC)NC(=O)[C@H](CCCN=C(N)N)NC(=O)[C@H](Cc1c[nH]c2ccccc12)NC(=O)[C@H](Cc1ccc(O)cc1)NC(=O)[C@H](CCCN=C(N)N)NC(=O)[C@H](CCC)NC(=O)[C@H](CCCN=C(N)N)NC(=O)[C@@H](N)Cc1c[nH]c2ccccc12)C(=O)N[C@@H](CCCN=C(N)N)C(=O)N[C@@H](Cc1ccc(O)cc1)C(N)=O (H-WR[Nva]RYWR[Nva]RYWR[Nva]RY-NH2) | Selectivity ratio | 14
CCC[C@H](NC(=O)[C@H](CCCN=C(N)N)NC(=O)[C@H](Cc1c[nH]c2ccccc12)NC(=O)[C@@H](N)CCCC[C@H](N)C(=O)N[C@@H](Cc1c[nH]c2ccccc12)C(=O)N[C@@H](CCCN=C(N)N)C(=O)N[C@@H](CCC)C(=O)N[C@@H](CCCN=C(N)N)C(=O)N[C@@H](Cc1ccc(O)cc1)C(N)=O)C(=O)N[C@@H](CCCN=C(N)N)C(=O)N[C@@H](Cc1ccc(O)cc1)C(N)=O (stereo in doubt; 4A) | Selectivity ratio | 100
